Data provenance: BindingDB's records for PubMed 11408545

Entries with reported Ki on Alpha-2A adrenergic receptor [16-465] (Rattus norvegicus, UniProt P22909)
Sequence (P22909 16-465): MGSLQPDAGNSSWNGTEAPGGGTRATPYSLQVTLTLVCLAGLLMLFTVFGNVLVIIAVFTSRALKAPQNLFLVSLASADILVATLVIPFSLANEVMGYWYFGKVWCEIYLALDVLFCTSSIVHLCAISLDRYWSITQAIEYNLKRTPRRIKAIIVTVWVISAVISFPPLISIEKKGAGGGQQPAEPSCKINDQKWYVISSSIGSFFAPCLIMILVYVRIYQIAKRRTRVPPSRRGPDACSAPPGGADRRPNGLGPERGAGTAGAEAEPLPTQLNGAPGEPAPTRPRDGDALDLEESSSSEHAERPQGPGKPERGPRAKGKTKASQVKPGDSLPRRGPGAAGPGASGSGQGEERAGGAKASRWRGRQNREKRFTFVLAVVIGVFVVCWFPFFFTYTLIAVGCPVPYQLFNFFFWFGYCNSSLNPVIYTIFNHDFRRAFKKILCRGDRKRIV
Answer with a number only, understood to be in nM.

Ask: Hello, please tell me recorded Ki for this one: COC1(C2=NCCN2)COc2ccccc2O1 (stereo not given)
Reply: 0.95

Ask: Hello, please tell me recorded Ki for this one: CC(C)=CCOc1ccc(Cl)c2c1CCN(C)CC2
Reply: 244

Ask: Hello, please tell me recorded Ki for this one: COC(=O)C1=COC(C)C2CN3CCc4c([nH]c5ccccc45)C3CC12 (stereo not given)
Reply: 1470

Ask: Hello, please tell me recorded Ki for this one: CN1C[C@H](Cn2ccnc2-c2ccccc2)C[C@@H]2c3cccc4[nH]c(Br)c(c34)C[C@H]21
Reply: 313

Ask: Hello, please tell me recorded Ki for this one: O=C1NCN(c2ccccc2)C12CCN(CC1COc3ccccc3O1)CC2 (stereo not given)
Reply: 92
